So I've got IC50 readings for Tyrosine-protein kinase BTK (Homo sapiens), take a look.
parameter: IC50 (nM)

I = Nc1ncnc2c1c(-c1ccc(Oc3ccccc3)cc1)nn2C1CCCC1
II = Cc1c(NC(=O)c2ccc(N(C)C)cc2)cccc1-c1nc(Nc2ccc(C(=O)N3CCOCC3)cc2)c2nccn2n1
III = Cc1c(NC(=O)c2ccc(N(C)C)cc2)cccc1-c1nc(Nc2ccc(C(=O)N3CCOCC3)cc2)c2ncc(N)n2n1
IV = CC(C)(C)c1ccc(C(=O)Nc2cccc(-c3cn4ccnc4c(Nc4ccccc4)n3)c2)cc1
Q. For the compounds shown above, give the order from largest IC50 to smallest. Enter labels, ranked according to the request.
A. IV, II, III, I
